Run description: Chemical stability of compound in 0.1 N aqueous HCl buffer assessed as compound remaining at pH 1 at 5 uM measured after 24 hrs by LC-MS/MS analysis
Assay type: physicochemical
Recorded conditions: pH 1, 24 h
Kind request: treat 90% as inclusive, so Stabilty at 90% or higher is 1, anything lower is -1.

Identify whether the reported Stabilty of the following molecule is 90% or greater: CC[C@H](C)[C@H](N)C(=O)N[C@H](Cc1cn(C)c2ccccc12)C(=O)O.Cl
1

Can Cl.Cn1cc(C[C@@H](NC(=O)[C@@H](N)CCC(N)=O)C(=O)O)c2ccccc21 be said to have Stabilty at or above 90%?
-1

Is reported Stabilty greater than or equal to 90% here: CN(C)CCOC(=O)[C@H](N)Cc1cn(C)c2ccccc12.Cl
-1

Tell me whether Stabilty is at least 90% here: CC(C)[C@H](N)C(=O)N[C@H](Cc1cn(C)c2ccccc12)C(=O)O.Cl
1

Dear colleague, could you confirm whether Cl.Cn1cc(C[C@@H](NC(=O)[C@H](N)Cc2c[nH]c3ccccc23)C(=O)O)c2ccccc21 has Stabilty at or above 90%?
-1

Dear colleague, could you confirm whether CCOC(=O)[C@@H](Cc1cn(C)c2ccccc12)NC(=O)[C@@H](N)CC(C)C.Cl has Stabilty at or above 90%?
-1

Hi, just wondering whether Cl.Cn1cc(C[C@@H](NC(=O)[C@@H](N)CCCCN)C(=O)O)c2ccccc21 shows Stabilty of 90% or higher.
1

Can Cl.Cn1cc(C[C@@H](N)C(=O)OCCC2CCNCC2)c2ccccc21 be said to have Stabilty at or above 90%?
-1
